Values compiled from ChEMBL document CHEMBL5335777.

Below, each of the compounds is paired with its reported IC50 value.
System: BXPC-3
Test: Antiproliferative activity against human BXPC-3 cells harboring wild type KRAS assessed as inhibition of cell growth incubated for 72 hrs by MTT assay
Assay type: functional, cell-based
Details: BXPC-3, 72 h
Answer with a number only, understood to be in µM.

1. O=C1Nc2cc(Cl)cc(Cl)c2C1=O = 13.1
2. C=CC(=O)N1CC(N2CCN(C(=O)CNc3cc(C4(C)CC4)c(Cl)cc3O)CC2)C1 = 36.8

Here's the next entry for you.
Briefly, IC50 measured for O=Cc1c(O)ccc2ccccc12 : 46.9
